The origin of these recorded values is patent US20140357662A1.

molecular target: rat Kir3.1/3.4 (Rattus norvegicus, UniProt P48548+P63251); construct: expressed in transfected cells; host or cells: HEK293 (Human Embryonic Kidney 293), stably transfected; test: Kir3.1/3.4 Electrophysiology Method (manual whole-cell patch clamp); type: cell-based; settings: Human Embryonic Kidney 293 stably transfected with rat Kir3.1/3.4; inhibition of leak-subtracted current at -140 mV
Sequence (P63251 whole entry): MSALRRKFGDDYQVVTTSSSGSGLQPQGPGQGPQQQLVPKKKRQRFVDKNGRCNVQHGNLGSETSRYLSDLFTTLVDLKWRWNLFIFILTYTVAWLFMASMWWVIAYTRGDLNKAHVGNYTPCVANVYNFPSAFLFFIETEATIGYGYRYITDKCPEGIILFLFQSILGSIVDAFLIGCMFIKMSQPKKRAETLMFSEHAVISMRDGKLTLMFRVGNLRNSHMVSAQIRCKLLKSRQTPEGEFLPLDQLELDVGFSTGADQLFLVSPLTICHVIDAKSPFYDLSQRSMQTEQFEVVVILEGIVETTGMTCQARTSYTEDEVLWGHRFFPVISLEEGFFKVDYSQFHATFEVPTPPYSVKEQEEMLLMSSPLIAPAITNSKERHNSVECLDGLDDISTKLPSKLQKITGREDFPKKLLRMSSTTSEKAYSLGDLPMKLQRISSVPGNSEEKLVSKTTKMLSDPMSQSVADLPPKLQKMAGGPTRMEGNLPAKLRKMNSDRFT
Sequence (P48548 whole entry): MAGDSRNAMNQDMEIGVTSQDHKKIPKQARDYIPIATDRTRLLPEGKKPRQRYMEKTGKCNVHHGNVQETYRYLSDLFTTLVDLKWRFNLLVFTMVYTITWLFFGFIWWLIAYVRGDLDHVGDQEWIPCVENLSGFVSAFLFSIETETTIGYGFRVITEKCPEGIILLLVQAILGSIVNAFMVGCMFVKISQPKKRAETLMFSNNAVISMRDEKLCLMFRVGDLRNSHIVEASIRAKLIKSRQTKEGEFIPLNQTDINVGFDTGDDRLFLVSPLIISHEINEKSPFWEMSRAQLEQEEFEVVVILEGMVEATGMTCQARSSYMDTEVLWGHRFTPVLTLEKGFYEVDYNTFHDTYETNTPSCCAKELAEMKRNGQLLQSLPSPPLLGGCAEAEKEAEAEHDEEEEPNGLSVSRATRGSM
pIC50: −log10 of the molar value.
assay_endpoint: pIC50

compound	assay_endpoint	reported_measurement
CNC(=O)c1sc2[nH]nc(N3CCC(COCCN4CCCC4)CC3)c2c1-c1ccccc1	pIC50	> 6.30
CC(=O)n1nc(N2CCCC(COCCN3CCCC3)C2)c2c(-c3ccccc3)csc21 (centres unmarked)	pIC50	> 6.30
c1ccc(-c2csc3[nH]nc(N4C5CCC4CC(COCCN4CCCC4)C5)c23)cc1 (centres unmarked)	pIC50	> 6.30
Brc1sc2[nH]nc(N3CC4CC3CC4OCCN3CCCC3)c2c1-c1ccccc1 (centres unmarked)	pIC50	> 6.30
c1ccc(-c2csc3[nH]nc(N4C5CCC4CC(NC4CCC4)C5)c23)cc1 (centres unmarked)	pIC50	> 6.30
CC(C)NC1CC2CCC(C1)N2c1n[nH]c2scc(-c3ccccc3)c12 (centres unmarked)	pIC50	5.52 to 6.30
CC(=O)n1nc(N2C3CCC2CC(OCCN2CCCC2)C3)c2c(-c3ccccc3)csc21 (centres unmarked)	pIC50	> 6.30
c1ccc(-c2csc3[nH]nc(N4CCC(COCCN5CCCC5)CC4)c23)cc1	pIC50	> 6.30
CS(=O)(=O)n1nc(N2CCC(COCCN3CCCC3)CC2)c2c(-c3ccccc3)csc21	pIC50	> 6.30
CN(C)C(=O)c1sc2[nH]nc(N3CCC(COCCN4CCCC4)CC3)c2c1-c1ccccc1	pIC50	5.52 to 6.30
c1ccc(-c2csc3[nH]nc(N4CCCC(COCCN5CCCC5)C4)c23)cc1 (centres unmarked)	pIC50	> 6.30
N#Cc1sc2[nH]nc(N3CCC(COCCN4CCCC4)CC3)c2c1-c1ccccc1	pIC50	> 6.30
CN(C)C(=O)c1sc2c(c(N3CCC(COCCN4CCCC4)CC3)nn2C)c1-c1ccccc1	pIC50	5.52 to 6.30
CC(C)NC(=O)c1sc2[nH]nc(N3CCC(COCCN4CCCC4)CC3)c2c1-c1ccccc1	pIC50	> 6.30
c1ccc(-c2csc3[nH]nc(N4C5CCC4CC(N4CCC4)C5)c23)cc1 (centres unmarked)	pIC50	5.52 to 6.30
c1ccc(-c2csc3[nH]nc(N4CC5CC4CC5OCCN4CCCC4)c23)cc1 (centres unmarked)	pIC50	> 6.30
c1ccc(-c2csc3[nH]nc(N4CCC(COCCN5CCCC5)C4)c23)cc1 (centres unmarked)	pIC50	> 6.30
